- Study system: T1, GST-hVEGF121 (human, UniProt P15692-9 27-147)
- T1 construct: plate coating of the VEGF ELISAs; also called human VEGF; not shown: glutathione S-transferase (GST) fusion partner
- T1 sequence (looked up): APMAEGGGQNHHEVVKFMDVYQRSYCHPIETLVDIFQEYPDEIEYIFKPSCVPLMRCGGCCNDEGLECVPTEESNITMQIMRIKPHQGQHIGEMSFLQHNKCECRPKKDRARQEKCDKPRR
- Experiment summary: competition ELISA, coated GST-hVEGF, competitor Fc-VEGFR2
Items are presented alongside their recorded IC50.
Express it in nM; write the number only.

Binder	Measurement
Nb-VF3\cmycH6 (bispecific antibody, Nb-VF3 without c-myc tracer peptide and histidine tag) QVQLVESGGGLVQPGGSLRLSCAASGNSAEDRLYNSYTWFRQAPGQGLEAVAAISSHFSAGLTYYADSVKGRFTISRDNSKNTLYLQMNSLRAEDTAVYYCEITSHASHNDAWSTPRTVWGQGTLVTVSSAHHSEDPSSKAPKAPAQVQLVESGGGLVQPGGSLRLSCAASGTEDGRLLTLGGSWFRQAPGQGLEAVAAIGAGDRGGATYYADSVKGRFTISRDNSKNTLYLQMNSLRAEDTAVYYCTALYERQPQLAATKVARKWGQGTLVTVSS	28.4

In: Which IC50 value is on record for Nb-VV6\cmycH6 (VHH, Nb-VV6 without c-myc tracer peptide and histidine tag) QVQLVESGGGLVQPGGSLRLSCAASGNSAEDRLYNSYTWFRQAPGQGLEAVAAISSHFSAGLTYYADSVKGRFTISRDNSKNTLYLQMNSLRAEDTAVYYCEITSHASHNDAWSTPRTVWGQGTLVTVSSAHHSEDPSSKAPKAPAQVQLVESGGGLVQPGGSLRLSCAASGNSAQDRLYNSYTWFRQAPGQGLEAVAAISSHFSAGLTYYADSVKGRFTISRDNSKNTLYLQMNSLRAEDTAVYYCEITSHASHNDAWSTPRTVWGQGTLVTVSS ?
Out: 5.23

In: Which IC50 value is on record for Nb-FV1\cmycH6 (bispecific antibody, Nb-FV1 without c-myc tracer peptide and histidine tag) QVQLVESGGGLVQPGGSLRLSCAASGTEDGRLLTLGGSWFRQAPGQGLEAVAAIGAGDRGGATYYADSVKGRFTISRDNSKNTLYLQMNSLRAEDTAVYYCTALYERQPQLAATKVARKWGQGTLVTVSSAHHSEDPSSKAPKAPAQVQLVESGGGLVQPGGSLRLSCAASGNSAEDRLYNSYTWFRQAPGQGLEAVAAISSHFSAGLTYYADSVKGRFTISRDNSKNTLYLQMNSLRAEDTAVYYCEITSHASHNDAWSTPRTVWGQGTLVTVSS ?
Out: 28.6

In: Which IC50 value is on record for Nb-V1\cmycH6 (VHH, Nb-V1 without c-myc tracer peptide and histidine tag) VHH: QVQLVESGGGLVQPGGSLRLSCAASGNSAEDRLYNSYTWFRQAPGQGLEAVAAISSHFSAGLTYYADSVKGRFTISRDNSKNTLYLQMNSLRAEDTAVYYCEITSHASHNDAWSTPRTVWGQGTLVTVSS ?
Out: 28.6
